Biological target: T1, Fc protein of human IgG1 antibody (human, UniProt P01857-1 100-330 = IgG part, limits assumed)
T1 construct: domain: Fc; Immobilised on a CM5 chip by amine coupling at about 1400 RU; also called Fc region of an IgG1 antibody
Experiment: SPR Biacore T200, 25 C, Fc of human IgG1 amine-coupled on CM5, peptide as analyte, single cycle kinetics
Quantity kind: Kd (nM)
Give bare numbers, in nM.

I would be grateful if you could provide Kd for each of the following entries.
1. QET-Z34CM-PA48-Fc3K (C-terminal -NH2 as printed in the 1st table; N-terminal Gln designed to be pyroglutamylated) QETFNMQCQRRFYEALHDPNLNEEQRNARIRSIREECGGAAPAAPAPAAPAAPAPAAPAAPAPAAPAAPAPAAPAAPAPAAPAAPAPGGRGNCAYHKGQIIWCTYH
2. QET-Z34CM-PA32-Fc3K (C-terminal -NH2 as printed in the 1st table; N-terminal Gln designed to be pyroglutamylated) QETFNMQCQRRFYEALHDPNLNEEQRNARIRSIREECGGAAPAAPAPAAPAAPAPAAPAAPAPAAPAAPAPGGRGNCAYHKGQIIWCTYH
3. QET-Fc3K-PA48-Z34CM (C-terminal -NH2 as printed in the 1st table; N-terminal Gln designed to be pyroglutamylated) QETRGNCAYHKGQIIWCTYHGGAAPAAPAPAAPAAPAPAAPAAPAPAAPAAPAPAAPAAPAPAAPAAPAPGGFNMQCQRRFYEALHDPNLNEEQRNARIRSIREEC
4. QET-Fc3K-PA32-Z34CM (C-terminal -NH2 as printed in the 1st table; N-terminal Gln designed to be pyroglutamylated) QETRGNCAYHKGQIIWCTYHGGAAPAAPAPAAPAAPAPAAPAAPAPAAPAAPAPGGFNMQCQRRFYEALHDPNLNEEQRNARIRSIREEC

1: 8.98; 2: 7.91; 3: 8.48; 4: 12.7
